Consider the following variants; for each one, report its yeast surface expression.
B1: scFv; the commonest letter at each place (parent)
chain 1: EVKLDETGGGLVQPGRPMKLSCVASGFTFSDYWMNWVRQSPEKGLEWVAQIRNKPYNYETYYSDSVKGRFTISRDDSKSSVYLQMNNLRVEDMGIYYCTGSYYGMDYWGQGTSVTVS
chain 2: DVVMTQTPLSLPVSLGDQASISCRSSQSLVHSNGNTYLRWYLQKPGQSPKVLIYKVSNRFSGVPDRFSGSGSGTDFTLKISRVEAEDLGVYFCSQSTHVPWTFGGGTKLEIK

variants of: B1; test: yeast surface expression (ratio to wild type); higher = more expressed; details: format: scFv 4-4-20, heavy + light

Lookup: Which yeast surface expression value belongs to chain 1 F29R V37S ?
Found: 0.385

Lookup: Which yeast surface expression value belongs to chain 1 T28P Y32C ?
Found: 0.967

Lookup: Which yeast surface expression value belongs to chain 1 D106F ?
Found: 0.325

Lookup: Which yeast surface expression value belongs to chain 1 T28V F29W ?
Found: 0.491

Lookup: Which yeast surface expression value belongs to chain 1 G100I Y102M ?
Found: 1.08

Lookup: Which yeast surface expression value belongs to chain 1 M105I Y107S ?
Found: 0.853

Lookup: Which yeast surface expression value belongs to chain 1 S101Y Y102N D106Y ?
Found: 0.501

Lookup: Which yeast surface expression value belongs to chain 1 N35K V37M ?
Found: 0.48

Lookup: Which yeast surface expression value belongs to chain 1 S30M V37E ?
Found: 0.721

Lookup: Which yeast surface expression value belongs to chain 1 S101T Y103P ?
Found: 0.643

Lookup: Which yeast surface expression value belongs to chain 1 N35E V37W ?
Found: 0.704

Lookup: Which yeast surface expression value belongs to chain 1 S101C G109D ?
Found: 0.328

Lookup: Which yeast surface expression value belongs to chain 1 Y32K M34C ?
Found: 0.91

Lookup: Which yeast surface expression value belongs to chain 1 S101I Y102L ?
Found: 0.376

Lookup: Which yeast surface expression value belongs to chain 1 W33D V37C ?
Found: 0.802

Lookup: Which yeast surface expression value belongs to chain 1 G100T S101N G104K ?
Found: 0.565

Lookup: Which yeast surface expression value belongs to chain 1 W33F N35T ?
Found: 0.824

Lookup: Which yeast surface expression value belongs to chain 1 T28V F29Q ?
Found: 0.917

Lookup: Which yeast surface expression value belongs to chain 1 D106N Y107I G109S ?
Found: 0.679

Lookup: Which yeast surface expression value belongs to chain 1 V37E ?
Found: 0.597

Lookup: Which yeast surface expression value belongs to chain 1 W33M M34P ?
Found: 0.576

Lookup: Which yeast surface expression value belongs to chain 1 T28H W36L ?
Found: 0.454
